molecular target: SARS-CoV-2 S-RBD with Avi-tag and deca-His tag (residues 330-531) (SARS-CoV-2, UniProt P0DTC2 330-531); assay: BLI
assay_endpoint: Kd (nM)

[[record]]
binder = "sybody LR5 (VHH) VHH: QVQLVESGGGSVQAGGSLRLSCAASGSISSITYLGWFRQAPGKEREGVAALITSNGRTYYADSVKGRFTVSLDNAKNTVYLQMNSLKPEDTALYYCAAATWGYHWPLGAWDYWYWGQGTQVTVS"
assay_value = 22.8

[[record]]
binder = "sybody MR4 (VHH) VHH: QVQLVESGGGLVQAGGSLRLSCAASGFPMYAWEMAWYRQAPGKEREWVAAIRSMGVHTHYSDSVKGRFTISRDNAKNTVYLQMNSLKPEDTAVYYCNVKDFGGHQAYYDYWGQGTQVTVS"
assay_value = 23.3

[[record]]
binder = "sybody LR1 (VHH) VHH: QVQLVESGGGSVQAGGSLRLSCAASGSISSITYLGWFRQAPGKEREGVAALITDSGRTYYADSVKGRFTVSLDNAKNTVYLQMNSLKPEDTALYYCAAAEWGYEWPLYYASSWYWGQGTQVTVS"
assay_value = 47.5

[[record]]
binder = "sybody SR4 (VHH, biotin by an amine-reactive crosslinker (only where immobilised on the SA sensor)) VHH: QVQLVESGGGLVQAGGSLRLSCAASGFPVYSWNMWWYRQAPGKEREWVAAIESHGDSTRYADSVKGRFTISRDNAKNTVYLQMNSLKPEDTAVYYCYVWVGHTYYGQGTQVTVS"
assay_value = 14.5


Sourced from paper PMC8324831
